Quick reference for residual activity among some compounds
# Measured Target: Serine/threonine-protein kinase BRSK1 (Homo sapiens) (UniProt Q8TDC3)
# Sequence (Q8TDC3 whole entry): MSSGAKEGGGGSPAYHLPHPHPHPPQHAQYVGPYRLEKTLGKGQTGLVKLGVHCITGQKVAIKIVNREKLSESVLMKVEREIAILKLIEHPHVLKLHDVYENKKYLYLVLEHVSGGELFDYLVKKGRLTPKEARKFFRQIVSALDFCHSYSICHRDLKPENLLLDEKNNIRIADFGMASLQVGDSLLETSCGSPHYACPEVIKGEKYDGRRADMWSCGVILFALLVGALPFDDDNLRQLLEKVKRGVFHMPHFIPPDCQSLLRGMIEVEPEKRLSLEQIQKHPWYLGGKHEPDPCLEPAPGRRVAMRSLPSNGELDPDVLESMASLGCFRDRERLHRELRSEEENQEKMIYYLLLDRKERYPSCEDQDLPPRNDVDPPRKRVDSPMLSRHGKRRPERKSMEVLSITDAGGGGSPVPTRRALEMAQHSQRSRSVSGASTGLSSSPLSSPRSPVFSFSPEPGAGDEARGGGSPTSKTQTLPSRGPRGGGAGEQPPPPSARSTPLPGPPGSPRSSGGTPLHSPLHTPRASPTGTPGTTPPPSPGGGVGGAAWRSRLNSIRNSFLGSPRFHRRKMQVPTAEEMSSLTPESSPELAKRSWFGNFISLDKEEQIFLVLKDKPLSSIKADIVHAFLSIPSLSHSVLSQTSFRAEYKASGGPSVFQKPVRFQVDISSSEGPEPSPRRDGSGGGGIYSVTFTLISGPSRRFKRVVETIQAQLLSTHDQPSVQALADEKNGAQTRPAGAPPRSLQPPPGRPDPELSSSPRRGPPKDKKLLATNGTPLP
# Applied Conditions: at 1 µM

{"Smiles Code": "COc1cc2ncnc(N3CCN(C(=O)Nc4ccc(Oc5ccccc5)cc4)CC3)c2cc1OC", "Unit Tag": "%", "residual activity": 79}
{"Smiles Code": "Cc1ccc(NC2=CC(=O)c3sc(C)nc3C2=O)cc1", "Unit Tag": "%", "residual activity": 101}
{"Smiles Code": "O=C1c2ccccc2-[n+]2ccc3c([nH]c4ccccc43)c21", "Unit Tag": "%", "residual activity": 75}
{"Smiles Code": "COc1cccc(-c2cc(=O)c3ccccc3o2)c1N", "Unit Tag": "%", "residual activity": 101}
{"Smiles Code": "Oc1ccc(Nc2nc(-c3ccc(Cl)cc3)cs2)cc1", "Unit Tag": "%", "residual activity": 81}
{"Smiles Code": "O=c1c2ccccc2[nH]c(=S)n1CCN1CCC(=C(c2ccc(F)cc2)c2ccc(F)cc2)CC1", "Unit Tag": "%", "residual activity": 63}
{"Smiles Code": "Oc1c2ccccc2c2c3c(cccc13)N=N2", "Unit Tag": "%", "residual activity": 38}
{"Smiles Code": "CC(=O)c1ccc(N2CCOCC2)cc1O", "Unit Tag": "%", "residual activity": 93}
{"Smiles Code": "COc1cc2ncnc(Nc3ccc(Oc4ccccc4)cc3)c2cc1OC", "Unit Tag": "%", "residual activity": 55}
{"Smiles Code": "Cc1cccc(-c2[nH]c(C(C)(C)C)nc2-c2ccc3c(c2)OCO3)n1", "Unit Tag": "%", "residual activity": 97}
{"Smiles Code": "CN(C)c1ccc(/C=C2\\C(=O)Nc3ccccc32)cc1", "Unit Tag": "%", "residual activity": 83}

---

# Measured Target: Receptor-type tyrosine-protein kinase FLT3 (Homo sapiens)
# Applied Conditions: at 10 µM

{"Compound": "Cn1nc2c3c(cccc31)C(=O)c1ccccc1-2", "residual activity / %": 20}
{"Compound": "COc1cc2ncc(-c3ccccc3)nc2cc1OC", "residual activity / %": 16}
{"Compound": "Cc1cccc(-c2[nH]c(C(C)(C)C)nc2-c2ccc3c(c2)OCO3)n1", "residual activity / %": 87}
{"Compound": "CC(C)n1cnc2/c(=N/c3cccc(Cl)c3)nc(NCCO)[nH]c21", "residual activity / %": 1}
{"Compound": "COc1ccc(OC)c2c(=S)c3ccccc3[nH]c12", "residual activity / %": 73}
{"Compound": "CO[C@H]1[C@@H](OC)C[C@H](C)[C@@H](OC)C2=CC(=O)C=C(NC(=O)/C(C)=C/C=C/[C@H](OC)[C@@H](OC(N)=O)/C(C)=C/[C@@H]1C)C2=O", "residual activity / %": 76}
{"Compound": "Nc1n[nH]c2nnc(-c3c(-c4ccccc4)nn4ccccc34)cc12", "residual activity / %": 22}
{"Compound": "Oc1ccc(-c2nc(-c3ccc(F)cc3)c(-c3ccncc3)[nH]2)cc1", "residual activity / %": 85}
{"Compound": "Cc1cncc2cccc(S(=O)(=O)N3CCCN(C(=O)CN)C[C@H]3C)c12", "residual activity / %": 86}
{"Compound": "CN(C)c1ccc(/C=C2\\C(=O)Nc3ccccc32)cc1", "residual activity / %": 1}
{"Compound": "Ic1cccc(CSc2nnc(-c3ccncc3)o2)c1", "residual activity / %": 19}
{"Compound": "Oc1n[nH]c2nnc(-c3c(-c4ccccc4)nn4ccccc34)cc12", "residual activity / %": 63}
{"Compound": "CCN(CC)C(=O)c1ccc(Nc2nc(OCC3CCCCC3)c3nc[nH]c3n2)cc1", "residual activity / %": 1}
{"Compound": "O=c1c2ccccc2[nH]c(=S)n1CCN1CCC(=C(c2ccc(F)cc2)c2ccc(F)cc2)CC1", "residual activity / %": 57}
{"Compound": "O=C1Nc2ccccc2/C1=C1/Nc2ccccc2/C1=N\\OCCC(O)CO (centres undefined)", "residual activity / %": 0}
{"Compound": "CCN(CC)CCCCN1c2ccccc2Oc2ccc(Cl)cc21", "residual activity / %": 74}
{"Compound": "N#C/C(=C(\\N)Sc1ccc(N)cc1)c1ccccc1C(F)(F)F", "residual activity / %": 59}
{"Compound": "O=C1Nc2ccc(Br)cc2/C1=C\\c1cc2c([nH]1)CCCC2", "residual activity / %": 1}
{"Compound": "CO[C@H]1C[C@@H]2CC[C@@H](C)[C@@](O)(O2)C(=O)C(=O)N2CCCC[C@H]2C(=O)O[C@H]([C@H](C)C[C@@H]2CC[C@@H](O)[C@H](OC)C2)CC(=O)[C@H](C)/C=C(\\C)[C@@H](O)[C@@H](OC)C(=O)[C@H](C)C[C@H](C)/C=C/C=C/C=C/1C", "residual activity / %": 96}
{"Compound": "O=c1cc(-c2cccc3c2Sc2ccccc2S3)oc(N2CCOCC2)c1", "residual activity / %": 83}
{"Compound": "CCOc1cc2ncnc(Nc3cccc(Br)c3)c2cc1OCC", "residual activity / %": 40}
{"Compound": "COc1ccc(S(=O)(=O)N(CCO)c2ccccc2CN(C)C/C=C/c2ccc(Cl)cc2)cc1", "residual activity / %": 62}
{"Compound": "N#Cc1cnc2cnc(NCc3cccnc3)cc2c1Nc1ccc(F)c(Cl)c1", "residual activity / %": 0}
{"Compound": "c1ccc2c(-c3ccncc3)c[nH]c2c1", "residual activity / %": 78}
{"Compound": "c1ccc(-c2n[nH]cc2-c2ccnc3ccccc23)nc1", "residual activity / %": 23}
{"Compound": "Cc1cc2ncc(-c3ccccc3)nc2cc1C", "residual activity / %": 25}
{"Compound": "C[C@@H](N)[C@H]1CC[C@H](C(=O)Nc2ccncc2)CC1", "residual activity / %": 95}
{"Compound": "N#CC(C#N)=C(N)/C(C#N)=C/c1ccc(O)cc1", "residual activity / %": 86}
{"Compound": "CC(=O)c1ccc(N2CCOCC2)cc1O", "residual activity / %": 86}
{"Compound": "COc1ccc(C(=O)Nc2sc3c(c2C(N)=O)CCCC3)cc1OC", "residual activity / %": 35}
{"Compound": "O=C(Nc1cccc(Nc2cc(Nc3cccc(C(F)(F)F)c3)ncn2)c1)C1CC1", "residual activity / %": 128}
{"Compound": "Cc1ccc(NC2=CC(=O)c3sc(C)nc3C2=O)cc1", "residual activity / %": 81}
{"Compound": "CC#CC(=O)Nc1cc2c(Nc3ccc(F)c(Cl)c3)ncnc2cn1", "residual activity / %": 85}
{"Compound": "COc1cc2ncnc(Nc3ccc(NC(=O)c4ccccc4)cc3)c2cc1OC", "residual activity / %": 92}
{"Compound": "O=C1NC(=O)c2c1c1c3ccccc3[nH]c1c1[nH]c3cc(Br)ccc3c21", "residual activity / %": 27}
{"Compound": "O=C1NC(=O)c2cc(Nc3ccc(F)cc3)c(Nc3ccc(F)cc3)cc21", "residual activity / %": 73}
{"Compound": "O=C(Nc1cccc(Nc2nccc(Nc3cccc(C(F)(F)F)c3)n2)c1)C1CC1", "residual activity / %": 3}
{"Compound": "NC(=O)c1ccc2[nH]c(-c3ccc(Oc4ccc(Cl)cc4)cc3)nc2c1", "residual activity / %": 27}
{"Compound": "COc1cccc(-c2cc(=O)c3ccccc3o2)c1N", "residual activity / %": 85}
